Biological target: rat MASP1 (Rattus norvegicus (Rat), UniProt Q8CHN8)
Sequence (Q8CHN8 other isoform, or with tags, fused parts or gaps): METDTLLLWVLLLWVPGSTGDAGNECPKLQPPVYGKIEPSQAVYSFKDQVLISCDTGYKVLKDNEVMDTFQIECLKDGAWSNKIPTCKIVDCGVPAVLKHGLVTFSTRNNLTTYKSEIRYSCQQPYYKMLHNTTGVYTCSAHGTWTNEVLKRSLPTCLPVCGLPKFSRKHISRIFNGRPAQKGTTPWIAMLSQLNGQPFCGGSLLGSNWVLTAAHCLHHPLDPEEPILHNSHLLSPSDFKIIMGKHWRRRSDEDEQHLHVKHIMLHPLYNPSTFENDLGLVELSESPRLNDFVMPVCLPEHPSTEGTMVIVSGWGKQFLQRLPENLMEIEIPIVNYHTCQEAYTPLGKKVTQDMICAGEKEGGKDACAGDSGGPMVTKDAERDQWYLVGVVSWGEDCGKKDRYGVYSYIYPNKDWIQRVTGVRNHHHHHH
Experiment: Biochemical rat MASP1 assay (FRET substrate)
Settings: Average IC50; recombinant rat MASP1; read-out: rat MASP1 IC50
Where a SMILES comes first, the peptide text is derived from it. Bridges are numbered along the chain shown (N, C = ends). [ ]: non-standard residue; d: D form. tBuAla = CC(C)(C)C[C@H](N)C(=O)O; Pen = CC(C)(S)[C@H](N)C(=O)O
Endpoint name: IC50 (nM)
Report as a plain number; the unit nM is understood.

Compound	Tested on	IC50 / nM
CC[C@H](C)[C@@H]1NC(=O)[C@@H]2CSSC[C@H](NC(=O)[C@H](Cc3ccc(O)cc3)NC(=O)CNC(=O)[C@H](CC(=O)O)NC(=O)[C@@H]3CCCN3C1=O)C(=O)N[C@@H](CO)C(=O)N[C@@H](CCCNC(=N)N)C(=O)N[C@@H](CO)C(=O)N[C@@H](Cc1ccc(O)cc1)C(=O)N1CCC[C@H]1C(=O)N1CCC[C@H]1C(=O)N[C@@H](C(C)C)C(=O)N2 [Ref. No 8, reference compound] (cyclo(CIPDGYCSRSYPPV); disulfide 1-7)	rat MASP1 (Rattus norvegicus (Rat), UniProt Q8CHN8)	1000
CC[C@H](C)[C@@H]1NC(=O)[C@@H]2CCCN2C(=O)[C@@H]2CCCN2C(=O)[C@H](CC(C)(C)C)NC(=O)[C@H](CO)NC(=O)[C@H](CCCNC(=N)N)NC(=O)[C@H](CO)NC(=O)[C@@H]2CSSC(C)(C)[C@H](NC1=O)C(=O)N[C@@H]([C@@H](C)CC)C(=O)N1CCC[C@H]1C(=O)NCCCCCC(=O)NC[C@H]1CC[C@@H](CC1)C(=O)N[C@@H]([C@@H](C)CC)C(=O)N2 [Example 59]	rat MASP1 (Rattus norvegicus (Rat), UniProt Q8CHN8)	48.6

Please turn your attention to the following entry.
Lookup: Could you share which IC50 value was measured for CC[C@H](C)[C@@H]1NC(=O)CNC(=O)CNC(=O)[C@H](C)NC(=O)[C@@H](CC(=O)O)NC(=O)[C@@H]2CCCN2C(=O)[C@H]([C@@H](C)CC)NC(=O)[C@H]2NC(=O)[C@H]([C@@H](C)CC)NC(=O)[C@@H]3CCCN3C(=O)[C@@H]3CCCN3C(=O)[C@H](CC(C)(C)C)NC(=O)[C@H](CO)NC(=O)[C@H](CCCNC(=N)N)NC(=O)[C@H](CO)NC(=O)[C@H](CSSC2(C)C)NC1=O [Example 39] (cyclo(AGGICSRS[tBuAla]PPI[Pen]IP[dD]); disulfide 5-13) ?
Found: 44

###

Target: human MASP2 (Homo sapiens (Human))
Sequence (O00187 other isoform, or with tags, fused parts or gaps): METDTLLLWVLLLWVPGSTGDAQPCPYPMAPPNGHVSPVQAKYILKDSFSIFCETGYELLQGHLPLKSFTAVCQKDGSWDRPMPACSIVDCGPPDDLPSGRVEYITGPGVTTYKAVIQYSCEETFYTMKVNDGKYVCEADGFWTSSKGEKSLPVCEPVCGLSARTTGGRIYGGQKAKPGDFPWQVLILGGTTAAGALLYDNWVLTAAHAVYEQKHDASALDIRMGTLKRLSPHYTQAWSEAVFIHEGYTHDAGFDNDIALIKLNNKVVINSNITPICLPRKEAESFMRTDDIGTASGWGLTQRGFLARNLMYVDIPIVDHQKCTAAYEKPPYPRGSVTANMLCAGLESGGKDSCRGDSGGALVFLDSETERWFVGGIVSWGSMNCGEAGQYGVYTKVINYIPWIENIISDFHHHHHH
Assay: Biochemical human MASP2 assay (FRET substrate)
Conditions: Average IC50; recombinant human MASP2; read-out: human MASP2 IC50
Description: The MASP1 or MASP2 expression vectors were transfected into the HEK293 (ATCC No. CRL-1573) cell line using Lipofectamine LTX® Reagent (Thermo-Fischer), as described by the manufacturer. […] The increase of fluorescence intensity was measured in appropriate fluorescence plate reader (e.g. TECAN Ultra) using excitation wavelength of 340 nm and emission wavelength of 490 nm. IC50 values were calculated from percentage of inhibition of human MASP2 activity as a function of test compound concentration.
*1 amine or outer side, *2 acyl side, *3 side chain or, on linkers, in order; H or OH if unused. Where a SMILES comes first, the peptide text is derived from it. Bridges are numbered along the chain shown (N, C = ends). [ ]: non-standard residue; d: D form. X5 = NCCC[C@H](N[*:1])C(=O)NC(=O)[*:2]; Arg(Me) = CNC(=N)NCCC[C@H](N)C(=O)O; tBuAla = CC(C)(C)C[C@H](N)C(=O)O; Pen = CC(C)(S)[C@H](N)C(=O)O
Endpoint name: pIC50
Reminder that pIC50 means the negative base-10 logarithm of the concentration expressed in mol/L.

Lookup: // lookup pIC50 | system=human MASP2 (Homo sapiens (Human)) | key= CC[C@H](C)[C@@H]1NC(=O)NC(=O)[C@H](CCCN)NC(=O)[C@@H]2CCCN2C(=O)[C@H]([C@@H](C)CC)NC(=O)[C@H]2NC(=O)[C@H]([C@@H](C)CC)NC(=O)[C@@H]3CCCN3C(=O)[C@@H]3CCCN3C(=O)[C@H](CC(C)(C)C)NC(=O)[C@H](CO)NC(=O)[C@H](CCCNC(=N)NC)NC(=O)[C@H](CO)NC(=O)[C@H](CSSC2(C)C)NC1=O [Example 96] (cyclo([Arg(Me)]S[tBuAla]PPI[Pen]IP[X5]ICS); disulfide 7-12)
Found: 6.40

###

IC50 values for the compounds below.
Target: rat MASP1 (Rattus norvegicus (Rat), UniProt Q8CHN8)
Test: Biochemical rat MASP1 assay (FRET substrate)
Conditions: Average IC50; recombinant rat MASP1; read-out: rat MASP1 IC50
Where a SMILES comes first, the peptide text is derived from it. Bridges are numbered along the chain shown (N, C = ends). [ ]: non-standard residue; d: D form. Oic = O=C(O)[C@@H]1C[C@@H]2CCCC[C@@H]2N1; Pen = CC(C)(S)[C@H](N)C(=O)O; Dap = NC[C@H](N)C(=O)O; Ahx = NCCCCCC(=O)O
Quick reminder: number only, in nM, skip the unit.

Answered examples (2):
Compound	IC50 / nM
CC[C@H](C)[C@@H]1NC(=O)[C@H](CN)NC(=O)[C@H](CN)NC(=O)[C@@H]2CCCN2C(=O)[C@H]([C@@H](C)CC)NC(=O)[C@H]2NC(=O)[C@H]([C@@H](C)CC)NC(=O)[C@@H]3C[C@@H]4CCCC[C@@H]4N3C(=O)[C@@H]3CCCN3C(=O)[C@H](CC(C)C)NC(=O)[C@H](CO)NC(=O)[C@H](CCCNC(=N)N)NC(=O)[C@H](CO)NC(=O)[C@H](CSSC2(C)C)NC1=O [Example 89]	290
CC[C@H](C)[C@@H]1NC(=O)CCCCCNC(=O)CC[C@@H](C(N)=O)NC(=O)[C@@H]2CCCN2C(=O)[C@H]([C@@H](C)CC)NC(=O)[C@H]2NC(=O)[C@H]([C@@H](C)CC)NC(=O)[C@@H]3C[C@@H]4CCCC[C@@H]4N3C(=O)[C@@H]3CCCN3C(=O)[C@H](CC(C)C)NC(=O)[C@H](CO)NC(=O)[C@H](CCCNC(=N)N)NC(=O)[C@H](CO)NC(=O)[C@H](CSSC2(C)C)NC1=O [Example 75] ([Ahx]ICSRSLP[Oic]I[Pen]IPE-NH2; disulfide 3-11; lactam N-14)	27

As a next step, examine the compound that follows.
Lookup: Form entry - test system: rat MASP1 (Rattus norvegicus (Rat), UniProt Q8CHN8); read-out: IC50; compound: CC[C@H](C)[C@@H]1NC(=O)CNC(=O)[C@@H](N)CCC(=O)NC[C@@H](C(N)=O)NC(=O)[C@H](CC(=O)O)NC(=O)[C@@H]2CCCN2C(=O)[C@H]([C@@H](C)CC)NC(=O)[C@H]2NC(=O)[C@H]([C@@H](C)CC)NC(=O)[C@@H]3C[C@@H]4CCCC[C@@H]4N3C(=O)[C@@H]3CCCN3C(=O)[C@H](CC(C)C)NC(=O)[C@H](CO)NC(=O)[C@H](CCCNC(=N)N)NC(=O)[C@H](CO)NC(=O)[C@H](CSSC2(C)C)NC1=O [Example 93] (H-EGICSRSLP[Oic]I[Pen]IPD[Dap]-NH2; lactam 1-16; disulfide 4-12)
Found: 410

###

Target: human MASP1 (Homo sapiens (Human))
Sequence (P48740 other isoform, or with tags, fused parts or gaps): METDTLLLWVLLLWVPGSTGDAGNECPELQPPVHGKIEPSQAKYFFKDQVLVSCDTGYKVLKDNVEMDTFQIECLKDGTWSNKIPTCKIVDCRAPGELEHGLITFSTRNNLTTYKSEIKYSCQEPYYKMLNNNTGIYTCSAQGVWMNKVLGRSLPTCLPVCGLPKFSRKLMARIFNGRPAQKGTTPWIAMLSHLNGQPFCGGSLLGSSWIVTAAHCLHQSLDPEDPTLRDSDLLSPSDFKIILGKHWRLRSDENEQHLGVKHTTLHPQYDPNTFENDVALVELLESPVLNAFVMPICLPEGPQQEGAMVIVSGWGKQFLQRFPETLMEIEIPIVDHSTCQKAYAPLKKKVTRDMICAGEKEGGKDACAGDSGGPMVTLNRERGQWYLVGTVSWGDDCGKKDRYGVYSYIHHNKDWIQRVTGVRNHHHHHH
Assay: Biochemical human MASP1 assay (FRET substrate)
Conditions: Average IC50; recombinant human MASP1; read-out: human MASP1 IC50
Source text: A truncated cDNA sequence of human MASP1 encoding the fragment corresponding to the amino acids 297-699 with a C-terminal His Tag and N-terminal Ig-kappa secretion signal (SEQ ID No: 2) was subcloned into the mammalian expression vector pcDNA3.1 (Invitrogen). The MASP1 or MASP2 expression vectors were transfected into the HEK293 (ATCC No. CRL-1573) cell line using Lipofectamine LTX® Reagent (Thermo-Fischer), as described by the manufacturer. […]
Where a SMILES comes first, the peptide text is derived from it. Bridges are numbered along the chain shown (N, C = ends). [ ]: non-standard residue; d: D form. ξ: configuration not given here. Oic = O=C(O)[C@@H]1C[C@@H]2CCCC[C@@H]2N1; tBuAla = CC(C)(C)C[C@H](N)C(=O)O; Pen = CC(C)(S)[C@H](N)C(=O)O; ξIle = CC[C@H](C)C(N)C(=O)O; NMeC = CN[C@@H](CS)C(=O)O; Orn = NCCC[C@H](N)C(=O)O
Endpoint name: pIC50
Please note pIC50 is a logarithmic value: minus log10 of concentration in mol/L. Answer with that number alone.

Compound	Numeric value
CC[C@H](C)C1NC(=O)[C@@H]2CSSC[C@H](NC(=O)[C@H]([C@@H](C)CC)NC(=O)[C@H](C)NC(=O)[C@@H](N)CCCNC(=O)C[C@@H](C(N)=O)NC(=O)[C@@H]3CCCN3C1=O)C(=O)N[C@@H](CO)C(=O)N[C@@H](CCCNC(=N)N)C(=O)N[C@@H](CO)C(=O)N[C@@H](CC(C)(C)C)C(=O)N1CCC[C@H]1C(=O)N1CCC[C@H]1C(=O)N[C@@H]([C@@H](C)CC)C(=O)N2C (stereo partly drawn) [Example 44] (H-[Orn]AICSRS[tBuAla]PPI[NMeC][ξIle]PD-NH2; lactam 1-15; disulfide 4-12)	8.33
CC[C@H](C)[C@@H]1NC(=O)CNC(=O)[C@H](CO)NC(=O)CNC(=O)[C@H](CO)NC(=O)[C@H](CC(=O)O)NC(=O)[C@@H]2CCCN2C(=O)[C@H]([C@@H](C)CC)NC(=O)[C@@H]2CSSC[C@H](NC1=O)C(=O)N[C@@H](CO)C(=O)N[C@@H](CCCNC(=N)N)C(=O)N[C@@H](CO)C(=O)N[C@@H](CC(C)C)C(=O)N1CCC[C@H]1C(=O)N1CCC[C@H]1C(=O)N[C@@H]([C@@H](C)CC)C(=O)N2 [Example 21] (cyclo(CIPDSGSGICSRSLPPI); disulfide 1-10)	6.77

Lookup: Bench note: what pIC50 did CC[C@H](C)[C@@H]1NC(=O)[C@H](C)NC(=O)CNC(=O)[C@H](C)NC(=O)C[C@@H](C(N)=O)NC(=O)[C@@H]2CCCN2C(=O)[C@H]([C@@H](C)CC)NC(=O)[C@H]2NC(=O)[C@H]([C@@H](C)CC)NC(=O)[C@@H]3C[C@@H]4CCCC[C@@H]4N3C(=O)[C@@H]3CCCN3C(=O)[C@H](CC(C)C)NC(=O)[C@H](CO)NC(=O)[C@H](CCCNC(=N)N)NC(=O)[C@H](CO)NC(=O)[C@H](CSSC2(C)C)NC1=O [Example 41] (AGAICSRSLP[Oic]I[Pen]IPD-NH2; disulfide 5-13; lactam N-16) show?
Found: 8.23
